In this section we review reported CC50 values for a set of compounds.
Tested on: HEK293
Assay: Cytotoxicity against HEK293 cells assessed as reduction in cell viability after 48 hrs by Alamar Blue reporter assay
Conditions: human, hek293, 48 h

structure-string	CC50
O=C(Nc1ccc(Sc2nc3ccccc3s2)c(Cl)c1)c1cccc(Br)c1	> 100 µM
COc1ccc(Br)cc1C(=O)Nc1ccc(Sc2nc3ccccc3s2)c(Cl)c1	> 100 µM
O=C(Nc1ccc(Sc2nc3ccccc3s2)c(Cl)c1)c1cc(Br)cc(Br)c1O	76 µM
COc1c(Br)cccc1C(=O)Nc1cccc(Cl)c1	> 100 µM
O=C(Nc1ccccc1)c1cc(Br)ccc1O	35 µM

Item: COc1c(Br)cc(Br)cc1C(=O)Nc1ccc(Sc2nc3ccccc3s2)cc1 | CC50: > 100 µM

Item: O=C(Nc1cccc(Cl)c1)c1ccccc1O | CC50: 37 µM

Item: COc1c(Br)cccc1C(=O)Nc1ccc(Sc2nc3ccccc3s2)c(Cl)c1 | CC50: > 100 µM

Item: COc1ccccc1C(=O)Nc1ccccc1 | CC50: > 100 µM

Item: O=C(Nc1ccccc1)c1cc(Br)cc(Br)c1 | CC50: > 100 µM

Item: COc1c(Br)cc(Br)cc1C(=O)Nc1cccc(Cl)c1 | CC50: > 100 µM

Item: CN[C@H](CC(C)C)C(=O)N[C@H]1C(=O)N[C@@H](CC(N)=O)C(=O)N[C@H]2C(=O)N[C@H]3C(=O)N[C@H](C(=O)N[C@H](C(=O)O)c4cc(O)cc(O)c4-c4cc3ccc4O)[C@H](O)c3ccc(c(Cl)c3)Oc3cc2cc(c3O[C@@H]2O[C@H](CO)[C@@H](O)[C@H](O)[C@H]2O[C@H]2C[C@](C)(N)[C@H](O)[C@H](C)O2)Oc2ccc(cc2Cl)[C@H]1O | CC50: > 100 µM

----------
Test system: HEK293
Experiment: Cytotoxicity against HEK293 cells assessed as reduction in cell viability after 48 hrs by Alamar Blue reporter assay
Conditions: human, hek293, 48 h
In this section we review reported CC50 values for a set of molecules.
Express your answer in µM, writing the number without its unit.

Before answering, review these 2 worked examples.
structure-string	target-under-test	CC50 (µM)
O=C(Nc1ccc(Sc2nc3ccccc3s2)cc1)c1cccc(Br)c1O	HEK293	71
O=C(Nc1cccc(Cl)c1)c1cc(Br)cc(Br)c1	HEK293	53

Item: O=C(Nc1cccc(Cl)c1)c1cccc(Br)c1O | CC50: 32

Item: O=C(Nc1ccc(Sc2nc3ccccc3s2)cc1)c1cc(Br)ccc1O | CC50: 42

Item: O=C(Nc1cccc(Cl)c1)c1cc(Br)ccc1O | CC50: 15

----------
In this section we review reported pIC50 values for a set of compounds.
Target: E. coli GroEL/ES (Escherichia coli, UniProt P0A6F5)
Sequence (P0A6F5 whole entry, looked up): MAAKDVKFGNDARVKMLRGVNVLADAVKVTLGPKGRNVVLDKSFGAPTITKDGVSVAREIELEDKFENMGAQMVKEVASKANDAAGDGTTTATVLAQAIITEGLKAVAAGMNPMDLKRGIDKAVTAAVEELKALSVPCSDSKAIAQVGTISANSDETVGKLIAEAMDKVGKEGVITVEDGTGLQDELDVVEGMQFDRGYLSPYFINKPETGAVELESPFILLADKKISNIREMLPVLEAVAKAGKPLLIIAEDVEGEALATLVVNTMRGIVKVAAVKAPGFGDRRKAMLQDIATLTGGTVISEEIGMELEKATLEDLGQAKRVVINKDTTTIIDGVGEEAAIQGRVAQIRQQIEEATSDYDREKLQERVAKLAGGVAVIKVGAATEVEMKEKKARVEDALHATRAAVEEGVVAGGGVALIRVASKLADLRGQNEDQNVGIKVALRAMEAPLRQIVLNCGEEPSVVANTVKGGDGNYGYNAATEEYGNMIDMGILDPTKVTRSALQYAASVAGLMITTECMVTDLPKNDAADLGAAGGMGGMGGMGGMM
Test: Inhibition of Escherichia coli GroEL expressed in Escherichia coli DH5alpha/Escherichia coli GroES expressed in Escherichia coli BL21 (DE3) assessed as reduction in GroEL/GroES-mediated denatured MDH refolding after 20 to 40 mins by spectrometric analysis
pIC50: −log10 of the molar value.

Before answering, review these 8 worked examples.
compound	readout-kind	result
COc1c(Br)cc(Br)cc1C(=O)Nc1ccc(Sc2nc3ccccc3s2)c(Cl)c1	pIC50	< 4.00
Cc1cc(C(C#N)c2ccc(Cl)cc2)c(Cl)cc1NC(=O)c1cc(I)cc(I)c1O (stereo not given)	pIC50	5.66
O=C(Nc1cccc(Cl)c1)c1ccccc1O	pIC50	< 4.00
COc1ccc(Br)cc1C(=O)Nc1ccc(Sc2nc3ccccc3s2)cc1	pIC50	< 4.00
O=C(Nc1ccc(Sc2nc3ccccc3s2)cc1)c1ccccc1	pIC50	< 4.00
O=C(Nc1ccc(Sc2nc3ccccc3s2)c(Cl)c1)c1cc(Br)cc(Br)c1	pIC50	< 4.00
CN[C@H](CC(C)C)C(=O)N[C@H]1C(=O)N[C@@H](CC(N)=O)C(=O)N[C@H]2C(=O)N[C@H]3C(=O)N[C@H](C(=O)N[C@H](C(=O)O)c4cc(O)cc(O)c4-c4cc3ccc4O)[C@H](O)c3ccc(c(Cl)c3)Oc3cc2cc(c3O[C@@H]2O[C@H](CO)[C@@H](O)[C@H](O)[C@H]2O[C@H]2C[C@](C)(N)[C@H](O)[C@H](C)O2)Oc2ccc(cc2Cl)[C@H]1O	pIC50	< 4.00
O=C(Nc1ccccc1)c1cccc(Br)c1	pIC50	< 4.00

Field pIC50 (system: E. coli GroEL/ES (Escherichia coli, UniProt P0A6F5)) for entry COc1c(Br)cccc1C(=O)Nc1ccc(Sc2nc3ccccc3s2)c(Cl)c1 = < 4.00

Field pIC50 (system: E. coli GroEL/ES (Escherichia coli, UniProt P0A6F5)) for entry COc1ccc(Br)cc1C(=O)Nc1ccccc1 = < 4.00

Field pIC50 (system: E. coli GroEL/ES (Escherichia coli, UniProt P0A6F5)) for entry O=C(Nc1cccc(Cl)c1)c1cc(Br)cc(Br)c1 = < 4.00

Field pIC50 (system: E. coli GroEL/ES (Escherichia coli, UniProt P0A6F5)) for entry COc1c(Br)cc(Br)cc1C(=O)Nc1cccc(Cl)c1 = < 4.00

Field pIC50 (system: E. coli GroEL/ES (Escherichia coli, UniProt P0A6F5)) for entry COc1ccccc1C(=O)Nc1ccc(Sc2nc3ccccc3s2)c(Cl)c1 = < 4.00

Data origin, for the record: ChEMBL document CHEMBL4266041
